target: human ether-à-go-go-related gene (hERG) potassium channel (human); assay: primary screen, population patch clamp on CHO cells stably expressing hERG; higher = less effect of the substance
Sequence (Q12809 whole entry, looked up): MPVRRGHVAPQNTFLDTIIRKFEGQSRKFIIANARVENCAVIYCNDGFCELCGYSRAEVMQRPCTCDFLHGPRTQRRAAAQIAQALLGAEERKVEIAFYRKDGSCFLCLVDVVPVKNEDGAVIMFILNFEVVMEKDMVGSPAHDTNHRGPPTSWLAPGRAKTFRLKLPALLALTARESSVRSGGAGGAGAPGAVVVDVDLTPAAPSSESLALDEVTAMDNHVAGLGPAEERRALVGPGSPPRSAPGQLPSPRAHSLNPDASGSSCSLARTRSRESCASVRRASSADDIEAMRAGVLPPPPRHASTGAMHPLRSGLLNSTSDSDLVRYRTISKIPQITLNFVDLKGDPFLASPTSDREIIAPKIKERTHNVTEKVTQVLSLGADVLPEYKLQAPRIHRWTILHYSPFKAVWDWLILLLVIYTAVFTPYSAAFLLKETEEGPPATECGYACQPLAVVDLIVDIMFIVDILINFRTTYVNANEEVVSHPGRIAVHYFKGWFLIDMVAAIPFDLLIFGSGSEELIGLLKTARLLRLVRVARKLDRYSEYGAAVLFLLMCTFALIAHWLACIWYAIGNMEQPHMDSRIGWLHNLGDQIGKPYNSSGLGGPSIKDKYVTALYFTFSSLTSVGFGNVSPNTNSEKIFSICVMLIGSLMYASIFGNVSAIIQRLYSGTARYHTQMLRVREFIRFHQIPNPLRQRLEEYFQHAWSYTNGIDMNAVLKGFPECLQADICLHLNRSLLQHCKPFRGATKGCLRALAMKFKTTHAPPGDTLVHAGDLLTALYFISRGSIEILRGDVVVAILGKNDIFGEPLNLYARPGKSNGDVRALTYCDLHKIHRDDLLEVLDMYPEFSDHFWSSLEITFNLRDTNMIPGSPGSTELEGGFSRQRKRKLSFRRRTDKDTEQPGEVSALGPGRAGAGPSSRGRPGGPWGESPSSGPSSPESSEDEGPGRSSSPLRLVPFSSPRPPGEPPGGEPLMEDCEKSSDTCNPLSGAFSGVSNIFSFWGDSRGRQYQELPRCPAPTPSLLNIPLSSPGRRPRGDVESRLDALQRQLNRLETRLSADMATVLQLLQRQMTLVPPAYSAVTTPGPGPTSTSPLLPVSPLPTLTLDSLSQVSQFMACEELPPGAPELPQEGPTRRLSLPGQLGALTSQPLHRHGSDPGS
Hit rate of the full screen: of about 310,000 compounds, about 2,200 (0.71%) showed an effect of 50% or more. The effect is printed as a negative number. The sample holds strong results, similar compounds and a random draw of the others, so the mix is not that of the screen.
value kind: hERG current change (%, negative = inhibition) at 1uM
Report as: number unit

Worked examples follow.
CCn1ccnc1CN1CCCC(CO)(Cc2cccc(OC)c2)C1 (centres unmarked) = -1.48%
COc1cc(/C=N/Nc2nn3cnnc3c3ccccc23)ccc1O = 20.3%
O=C(CN1CCN(C(=O)c2ccccc2)CC1)Nc1ccccc1 = 3.18%
COc1ccc(-n2ccnc2CN2CCCC(CO)(Cc3cccc(OC)c3)C2)cc1 (centres unmarked) = 0.509%
OCC1(CCCc2ccccc2)CCN(Cc2ccc(F)cc2)CC1 = -25.3%
CCOC(=O)CSc1cn2c(n1)CCC2 = 14.5%

Req: // lookup hERG current change (%, negative = inhibition) at 1uM for COc1cccc(CC2(CO)CCCN(Cc3cn[nH]c3-c3ccc(F)cc3)C2)c1 (centres unmarked)
Resp: 6.39%

Req: // lookup hERG current change (%, negative = inhibition) at 1uM for "CCc1nnc(NC(=O)CN2CCN(C(=O)c3ccccc3)CC2)s1"
Resp: 10.9%

Req: // lookup hERG current change (%, negative = inhibition) at 1uM for COc1ccc(F)c(CN2CCCC(CO)(Cc3cccc(Cl)c3)C2)c1 (centres unmarked)
Resp: 11.8%

Req: // lookup hERG current change (%, negative = inhibition) at 1uM for "OCC1(CCCc2ccccc2)CCN(Cc2cc(F)ccc2F)CC1"
Resp: -6.63%

Req: // lookup hERG current change (%, negative = inhibition) at 1uM for "O=C(CN1CCCCCC1)Nc1ccc(Br)cn1"
Resp: 3.88%

----------
biological target: human ether-à-go-go-related gene (hERG) potassium channel (human); assay: primary screen, population patch clamp on CHO cells stably expressing hERG; higher = less effect of the substance
About 2,200 (0.71%) of roughly 310,000 compounds showed an effect of 50% or more. Effects have a minus sign here. This excerpt belongs to a sample that is enriched for strong results.
The following compounds are listed with their measured hERG current change (%, negative = inhibition) at 1uM values.
Give the quantity in %, number only.

CCN(CCCNC(=O)Cn1ncc2c([nH]c3ccccc32)c1=O)Cc1ccccc1 = -2.84
CCCCC(=O)Nc1cccc(NC(=O)c2cccnc2Cl)c1 = 6.85
Cc1cccn2c(=O)c3cc(C(=O)NCCCOC(C)C)sc3nc12 = 9.15

Req: // lookup hERG current change (%, negative = inhibition) at 1uM for Cc1cc(C)cc(N2CC(O)Cn3c2nc2c3c(=O)[nH]c(=O)n2C)c1 (centres unmarked)
Resp: 9.84

Req: // lookup hERG current change (%, negative = inhibition) at 1uM for "CCNC(=O)CN(C1CCCCC1)S(C)(=O)=O"
Resp: 1.29

Req: // lookup hERG current change (%, negative = inhibition) at 1uM for "COc1ccc(-c2cc(C(=O)NCCc3ccc(S(N)(=O)=O)cc3)c3ccccc3n2)cc1"
Resp: 11.6

Req: // lookup hERG current change (%, negative = inhibition) at 1uM for "COc1cccc(CNC(=O)c2cc(C3CC3)nc3c2cnn3C(C)C)c1"
Resp: -0.644

Req: // lookup hERG current change (%, negative = inhibition) at 1uM for CCOC(=O)C1=C(N)OC2=C(C(=O)CC(C)(C)C2)C1c1ccco1 (centres unmarked)
Resp: -7.98

Req: // lookup hERG current change (%, negative = inhibition) at 1uM for "COc1ccc(-c2cc(-c3ccco3)[nH]c(=O)c2C#N)cc1OC"
Resp: 13.5

Req: // lookup hERG current change (%, negative = inhibition) at 1uM for "Clc1cccc(Cl)c1CN1CCN(c2ccccc2)CC1"
Resp: 15.9

Req: // lookup hERG current change (%, negative = inhibition) at 1uM for "COc1ccc(C(=O)c2c3ccc([N+](=O)[O-])cc3[n+]([O-])n2CCC[NH3+])cc1.[Cl-]"
Resp: -13.5

Req: // lookup hERG current change (%, negative = inhibition) at 1uM for CCN(CC1CCCN(CCc2cccc(OC)c2)C1)C(=O)c1ccoc1 (centres unmarked)
Resp: -14.5

Req: // lookup hERG current change (%, negative = inhibition) at 1uM for "COCCN1Cc2cccc(C(=O)NCc3ccccc3OC)c2C1=O"
Resp: 3.2

Req: // lookup hERG current change (%, negative = inhibition) at 1uM for "O=S(=O)(Nc1cc(F)ccc1F)c1cccc2nonc12"
Resp: -61

Req: // lookup hERG current change (%, negative = inhibition) at 1uM for "COc1ccc(C(=O)Nc2nc(N3C(=O)c4ccccc4C3=O)n(-c3ccccc3)n2)cc1"
Resp: 3.14

Req: // lookup hERG current change (%, negative = inhibition) at 1uM for "O=C(OCCNC(=O)c1ccc2ccccc2n1)c1ccc(F)cc1"
Resp: 4.77

Req: // lookup hERG current change (%, negative = inhibition) at 1uM for C=CCC(=O)N(CC)CC1CCCN(CCc2cccc(F)c2)C1 (centres unmarked)
Resp: -17.6
